study system: T1, human chemokine (C-C motif) receptor 8 (CCR8) (human, UniProt P51685 1-355)
T1 construct: On human peripheral blood lymphocytes / PBMC (native) or on human CCR8 GFP-transfected Ba/F3 cells; also called hCCR8; human CCR8
T1 sequence (P51685 whole entry): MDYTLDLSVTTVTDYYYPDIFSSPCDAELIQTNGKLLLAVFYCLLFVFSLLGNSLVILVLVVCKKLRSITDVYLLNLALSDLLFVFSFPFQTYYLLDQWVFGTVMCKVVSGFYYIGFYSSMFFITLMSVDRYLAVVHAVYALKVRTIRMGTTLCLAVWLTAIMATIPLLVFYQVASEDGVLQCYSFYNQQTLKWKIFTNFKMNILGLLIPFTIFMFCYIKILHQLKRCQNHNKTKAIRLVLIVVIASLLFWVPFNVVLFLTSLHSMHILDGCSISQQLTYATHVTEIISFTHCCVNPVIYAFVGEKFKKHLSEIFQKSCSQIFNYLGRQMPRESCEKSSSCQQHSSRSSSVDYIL
experiment notes: flow cytometry blocking, PBMC CCR8+ CD4+ cells; competitor PE-AB11 (its MFI is read)
Form field: MFI (one value per entry).
Hey, just send me the number, nothing else.

Determine its reported MFI: AB8 (antibody, V domains shown, Hybridoma monoclonal; also called antibody 8; clone 8) VH: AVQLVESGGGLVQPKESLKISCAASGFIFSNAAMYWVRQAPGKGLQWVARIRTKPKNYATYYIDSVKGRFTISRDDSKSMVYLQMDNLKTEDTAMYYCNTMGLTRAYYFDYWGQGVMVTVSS VL: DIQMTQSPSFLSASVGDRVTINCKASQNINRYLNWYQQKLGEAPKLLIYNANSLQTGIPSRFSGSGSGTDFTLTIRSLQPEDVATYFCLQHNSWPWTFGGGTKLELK
537

Determine its reported MFI: AB1 (antibody, V domains shown, Hybridoma monoclonal (mice or rats immunised); Used purified and PE-conjugated; also called antibody 1; clone 1) VH: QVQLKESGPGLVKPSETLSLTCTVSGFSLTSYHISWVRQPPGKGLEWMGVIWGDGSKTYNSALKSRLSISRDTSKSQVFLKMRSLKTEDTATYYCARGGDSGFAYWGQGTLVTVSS VL: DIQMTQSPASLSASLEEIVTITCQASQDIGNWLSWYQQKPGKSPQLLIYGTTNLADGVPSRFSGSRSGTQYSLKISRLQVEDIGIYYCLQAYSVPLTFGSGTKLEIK
944

Determine its reported MFI: AB5 (antibody, V domains shown, Hybridoma monoclonal; also called antibody 5; clone 5) VH: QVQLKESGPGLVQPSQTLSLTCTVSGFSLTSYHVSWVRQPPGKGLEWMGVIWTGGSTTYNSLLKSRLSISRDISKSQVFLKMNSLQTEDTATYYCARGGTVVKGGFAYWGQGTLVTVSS VL: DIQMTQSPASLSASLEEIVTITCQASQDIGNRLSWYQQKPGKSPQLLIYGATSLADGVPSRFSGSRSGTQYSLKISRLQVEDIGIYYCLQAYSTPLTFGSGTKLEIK
1000

Determine its reported MFI: AB12 (antibody, V domains shown, Hybridoma monoclonal; also called antibody 12; clone 12) VH: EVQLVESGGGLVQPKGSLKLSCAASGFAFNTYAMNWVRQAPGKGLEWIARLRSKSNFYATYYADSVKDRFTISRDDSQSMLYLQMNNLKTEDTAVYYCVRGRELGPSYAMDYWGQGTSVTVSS VL: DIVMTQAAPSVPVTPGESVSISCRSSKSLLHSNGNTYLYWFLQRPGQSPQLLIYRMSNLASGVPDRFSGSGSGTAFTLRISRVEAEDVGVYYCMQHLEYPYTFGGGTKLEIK
689

Determine its reported MFI: AB2 (antibody, V domains shown, Hybridoma monoclonal; also called antibody 2; clone 2) VH: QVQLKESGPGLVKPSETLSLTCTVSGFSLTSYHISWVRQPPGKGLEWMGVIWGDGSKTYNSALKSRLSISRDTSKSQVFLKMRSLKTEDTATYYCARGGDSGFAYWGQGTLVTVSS VL: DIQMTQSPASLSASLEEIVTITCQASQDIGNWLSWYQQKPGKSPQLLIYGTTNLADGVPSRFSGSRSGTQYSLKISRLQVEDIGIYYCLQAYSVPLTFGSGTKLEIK
971

Determine its reported MFI: AB11 (antibody, V domains shown, Hybridoma monoclonal; also called antibody 11; clone 11) VH: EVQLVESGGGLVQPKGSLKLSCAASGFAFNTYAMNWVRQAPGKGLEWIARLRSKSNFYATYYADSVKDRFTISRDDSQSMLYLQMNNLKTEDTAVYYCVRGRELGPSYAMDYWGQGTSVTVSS VL: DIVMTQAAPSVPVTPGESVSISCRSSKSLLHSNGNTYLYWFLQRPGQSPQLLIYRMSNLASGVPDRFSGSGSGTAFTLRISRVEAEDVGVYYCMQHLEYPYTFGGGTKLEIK
674

Further cases:
Determine its reported MFI: AB13 (antibody, V domains shown, Hybridoma monoclonal; also called antibody 13; clone 13) VH: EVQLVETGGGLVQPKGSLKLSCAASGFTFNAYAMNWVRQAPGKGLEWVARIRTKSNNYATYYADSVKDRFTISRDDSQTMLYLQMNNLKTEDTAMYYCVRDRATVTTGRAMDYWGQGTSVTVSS VL: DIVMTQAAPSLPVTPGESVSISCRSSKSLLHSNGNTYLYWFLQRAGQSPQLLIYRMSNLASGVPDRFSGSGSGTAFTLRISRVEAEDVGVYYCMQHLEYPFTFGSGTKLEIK
562
